- Tested on: OVCAR-5 ovarian
- ASSAY PROCEDURE: NCI tumour cell line growth inhibition, 48 h
OUTCOME MEASURE: TGI

Sample records with TGI:
INSERT INTO measurements (compound, test_value) VALUES
  ('c1ccc2cc(-c3cc(-c4cc(-c5ccc6ccccc6c5)on4)no3)ccc2c1', '> 100 µM'),
  ('O=C([O-])CC(=O)[O-].O=C([O-])CC(=O)[O-].[K+].[Pd+2]', '> 100 µM'),
  ('NC(=O)c1sc(-n2cnc3ccccc32)cc1OCc1ccccc1Br', '> 25 µM'),
  ('Oc1cccc2c(Cl)ccnc12', '> 50.4 µM'),
  ('COc1c(C)c(C/C=C(\C)CCCCO[Si](c2ccccc2)(c2ccccc2)C(C)(C)C)c(OC)c(OC)c1OC', '> 46.4 µM');

Look up TGI of Cc1cn(C2CC(n3cc(Cn4cc(I)c(=O)[nH]c4=O)nn3)C(CO)O2)c(=O)[nH]c1=O (stereo unspecified) and report it.
> 100 µM
